Biological target: T1, CD55 (UniProt P08174 35-353, limits assumed)
T1 construct: whole, on cells; also called CD55 on Rituximab resistant Raji cells (RRCL)
T1 sequence (looked up): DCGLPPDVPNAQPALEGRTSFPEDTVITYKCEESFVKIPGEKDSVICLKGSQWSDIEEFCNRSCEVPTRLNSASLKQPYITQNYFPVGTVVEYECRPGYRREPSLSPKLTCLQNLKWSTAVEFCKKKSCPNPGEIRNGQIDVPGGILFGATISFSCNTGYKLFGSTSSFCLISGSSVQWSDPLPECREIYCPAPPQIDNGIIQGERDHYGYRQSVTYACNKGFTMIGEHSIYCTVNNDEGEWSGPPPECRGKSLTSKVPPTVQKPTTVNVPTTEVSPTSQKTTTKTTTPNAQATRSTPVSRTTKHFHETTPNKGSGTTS
Assay: binding at 5 µg/ml against the unmutated antibody (SEQ ID NO: 14 + 15); format not stated
parameter.measured: Function remaining percentage (5 µg/ml)
Write your answer as a measured quantity: the number, then the unit.

The measured Function remaining percentage (5 µg/ml) associated with anti-CD55 antibody with CD55VH (SEQ ID NO: 14) N100E and VL (SEQ ID NO: 15) (antibody, V domains shown, also called Test 24) VH: QVKLQESGGGLVQPGGSLKLSCAASGFTFSGYGMSWIRQTPDKRLEWVATINSGGSYTYYSDSVKGRFTISRDNVKNTLYLQMSSLKSEDTAMYYCARREGTLYYYLMDYWGRGTLVTVSS VL: QSVLTQPPSASGSPGQSVTISCTGTSSDVGGYNYVSWYQQHPGKAPKFMIYDVSKRPSGVSNRFSGSKSGNTASLTISGVQAEDEADYYCSSYTSASTVIFGGGTKLTVL reads 17%

The measured Function remaining percentage (5 µg/ml) associated with anti-CD55 antibody with CD55VH (SEQ ID NO: 14) N52E and VL (SEQ ID NO: 15) (antibody, V domains shown, also called Test 6) VH: QVKLQESGGGLVQPGGSLKLSCAASGFTFSGYGMSWIRQTPDKRLEWVATIESGGSYTYYSDSVKGRFTISRDNVKNTLYLQMSSLKSEDTAMYYCARRNGTLYYYLMDYWGRGTLVTVSS VL: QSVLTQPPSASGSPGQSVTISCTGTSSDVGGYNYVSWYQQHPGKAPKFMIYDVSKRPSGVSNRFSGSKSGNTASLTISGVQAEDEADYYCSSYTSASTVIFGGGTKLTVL reads 21%

The measured Function remaining percentage (5 µg/ml) associated with anti-CD55 antibody with CD55VH (SEQ ID NO: 14) N52C and VL (SEQ ID NO: 15) (antibody, V domains shown, also called Test 3) VH: QVKLQESGGGLVQPGGSLKLSCAASGFTFSGYGMSWIRQTPDKRLEWVATICSGGSYTYYSDSVKGRFTISRDNVKNTLYLQMSSLKSEDTAMYYCARRNGTLYYYLMDYWGRGTLVTVSS VL: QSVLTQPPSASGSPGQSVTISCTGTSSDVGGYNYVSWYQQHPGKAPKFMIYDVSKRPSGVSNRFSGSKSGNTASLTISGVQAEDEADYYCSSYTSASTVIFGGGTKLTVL reads 32%

Origin of values: patent US20220169728A1
